Test: Pharmacokinetic evaluation of oral administration and intravenous injection in rats
Assay type: in vivo, SD rats
Settings: male, SD, rat, in vivo; Compound 3 in plasma, rats, oral administration of Compound 3 (15 mg/kg)
Where a name gives a salt, the structure may show the parent alone.

[
  {
    "compound": "O=C(Nc1ncc([N+](=O)[O-])s1)c1ccccc1OP(=O)(O)O [Compound 3, phosphate monosodium salt]",
    "AUC(0-t) / ng·h/mL": 119
  }
]

* * *

Assay: Pharmacokinetic evaluation of oral administration in mice (tizoxanide in blood by LC/MS/MS)
Type: in vivo, ICR mice
Details: oral administration in mice, in words
Counter-ions that a name gives are not always drawn.
quantity.name: Area Under concentration-time Curve (AUC) compared to nitazoxanide

[
  {
    "compound": "CCS(=O)(=O)Oc1ccccc1C(=O)Nc1ncc([N+](=O)[O-])s1 [Compound 7]",
    "reported": "much higher"
  },
  {
    "compound": "NCCS(=O)(=O)Oc1ccccc1C(=O)Nc1ncc([N+](=O)[O-])s1 [Compound 12, hydrochloride]",
    "reported": "much higher"
  },
  {
    "compound": "CS(=O)(=O)Oc1ccccc1C(=O)Nc1ncc([N+](=O)[O-])s1 [Compound 6]",
    "reported": "much higher"
  },
  {
    "compound": "CCOP(=O)(OCC)Oc1ccccc1C(=O)Nc1ncc([N+](=O)[O-])s1 [Compound 18]",
    "reported": "obviously higher"
  },
  {
    "compound": "COP(=O)(OC)Oc1ccccc1C(=O)Nc1ncc([N+](=O)[O-])s1 [Compound 17]",
    "reported": "obviously higher"
  },
  {
    "compound": "CCCCS(=O)(=O)Oc1ccccc1C(=O)Nc1ncc([N+](=O)[O-])s1 [Compound 9]",
    "reported": "much higher"
  },
  {
    "compound": "CCCS(=O)(=O)Oc1ccccc1C(=O)Nc1ncc([N+](=O)[O-])s1 [Compound 8]",
    "reported": "much higher"
  }
]

* * *

Assay: Pharmacokinetic evaluation of oral administration and intravenous injection in rats
Type: in vivo, SD rats
Details: male, SD, rat, in vivo; rats, intravenous injection of Compound 3 (5 mg/kg), 0.08 h; read-out: plasma concentration of Compound 3
Counter-ions that a name gives are not always drawn.

[
  {
    "molecule": "O=C(Nc1ncc([N+](=O)[O-])s1)c1ccccc1OP(=O)(O)O [Compound 3, phosphate monosodium salt]",
    "concentration at 0.08 h [ng/mL]": 13300
  }
]

* * *

Assay: Pharmacokinetic evaluation of oral administration and intravenous injection in rats
Assay type: in vivo, SD rats
Conditions: male, SD, rat, in vivo; Compound 3 in plasma, rats, oral administration of Compound 3 (15 mg/kg)
Where a name gives a salt, the structure may show the parent alone.

[
  {
    "molecule": "O=C(Nc1ncc([N+](=O)[O-])s1)c1ccccc1OP(=O)(O)O [Compound 3, phosphate monosodium salt]",
    "Cmax [ng/mL]": 100
  }
]

* * *

Test: Pharmacokinetic evaluation of oral administration and intravenous injection in rats
Assay type: in vivo, SD rats
Conditions: male, SD, rat, in vivo; Compound 3 in plasma, rats, oral administration of Compound 3 (15 mg/kg); read-out: MRT(0-t)
Structures can show the parent of a compound that is named as a salt.

[
  {
    "molecule": "O=C(Nc1ncc([N+](=O)[O-])s1)c1ccccc1OP(=O)(O)O [Compound 3, phosphate monosodium salt]",
    "MRT last": "1.22 h"
  }
]

* * *

Experiment: Pharmacokinetic evaluation of oral administration and intravenous injection in rats
Format: in vivo, SD rats
Settings: male, SD, rat, in vivo; rats, oral administration of Compound 3 (15 mg/kg), 0.25 h; read-out: plasma concentration of Compound 3
Counter-ions that a name gives are not always drawn.

[
  {
    "molecule": "O=C(Nc1ncc([N+](=O)[O-])s1)c1ccccc1OP(=O)(O)O [Compound 3, phosphate monosodium salt]",
    "concentration at 0.25 h": "71.1 ng/mL"
  }
]

* * *

Assay: Pharmacokinetic evaluation of oral administration and intravenous injection in rats
Format: in vivo, SD rats
Settings: male, SD, rat, in vivo; rats, intravenous injection of Compound 3 (5 mg/kg), 1 h; read-out: plasma concentration of Compound 3
Method: 9 SD rats (SPF grade, male, 200±10 g), provided by Laboratory Animal Center of the Academy of Military Medical Sciences, were grouped randomly, 3 […] for each group. […]; The plasma was separated and stored in a −20° C. refrigerator for further detection. (2) Oral administration group of Compound 3, a dose of 15 mg/kg (equivalent to a dose of 41 μmol/kg tizoxanide); […]; The plasma was separated and stored in a −20° C. refrigerator for further detection. […]
Structures can show the parent of a compound that is named as a salt.
quantity.name: concentration at 1 h (ng/mL)

[
  {
    "molecule": "O=C(Nc1ncc([N+](=O)[O-])s1)c1ccccc1OP(=O)(O)O [Compound 3, phosphate monosodium salt]",
    "reported": 345
  }
]

* * *

Test: Pharmacokinetic evaluation of oral administration and intravenous injection in rats
Format: in vivo, SD rats
Settings: male, SD, rat, in vivo; rats, oral administration of Compound 3 (15 mg/kg), 0.5 h; read-out: plasma concentration of Compound 3
Counter-ions that a name gives are not always drawn.
quantity.name: concentration at 0.5 h (µg/mL)

[
  {
    "compound": "O=C(Nc1ncc([N+](=O)[O-])s1)c1ccccc1OP(=O)(O)O [Compound 3, phosphate monosodium salt]",
    "reported": 0.033
  }
]
